Reference source for all entries: the supplement of paper PMC9112550

tested on: Escherichia coli TOP10; experiment: shrunken log2 fold change of peptide-encoding DNA abundance (4.5 h post-induction vs induction); higher = less antimicrobial activity (less host growth inhibition); conditions: time post-induction: 4.5 h; library: site-saturation at positions 5, 18, 19, 20
Dear colleague, classification is by shrunken log2 fold change, with ranges listed here: lowest = under -0.2, middle = from -0.2 up to 0.1, highest = 0.1 and over

| residue_string | class_assignment |
| --- | --- |
| RRIRGRPPRLPRPRPRPGWDPRP | highest |

Next:
Qu. Hi there! Could you help me figure out the category for "RRIRRRPPRLPRPRPRPILKPRP" please?
Ans. highest

====

tested on: Escherichia coli TOP10; assay: shrunken log2 fold change of peptide-encoding DNA abundance (4.5 h post-induction vs induction); higher = less antimicrobial activity (less host growth inhibition); settings: time post-induction: 4.5 h; library: site-saturation at positions 5, 18, 19, 20
quantity: shrunken log2 fold change

| residue_string | shrunken log2 fold change |
| --- | --- |
| RRIRGRPPRLPRPRPRPMLRPRP | 0.117 |
| RRIRMRPPRLPRPRPRPHECPRP | 0.0178 |
| RRIRCRPPRLPRPRPRPFIMPRP | -0.765 |
| RRIRSRPPRLPRPRPRPHSRPRP | -0.322 |
| RRIRQRPPRLPRPRPRPYCAPRP | -0.624 |

Qu. Requested read-out shrunken log2 fold change, target or system Escherichia coli TOP10, entry "RRIRMRPPRLPRPRPRPVIRPRP"
Ans. 0.00204

Qu. Next: "RRIRRRPPRLPRPRPRPEYTPRP"
Ans. 0.166

Qu. Next: "RRIRGRPPRLPRPRPRPRRNPRP"
Ans. 0.609

====

system: Escherichia coli TOP10; assay: shrunken log2 fold change of peptide-encoding DNA abundance (4.5 h post-induction vs induction); higher = less antimicrobial activity (less host growth inhibition); conditions: time post-induction: 4.5 h; library: site-saturation at positions 5, 18, 19, 20
Catalogue of sequences with associated shrunken log2 fold change
I'd appreciate a reply containing only the number, no unit.

Examples from the recorded data:
| residue_string | measured_number |
| --- | --- |
| RRIRDRPPRLPRPRPRPQNVPRP | -0.01 |
| RRIRKRPPRLPRPRPRPDCWPRP | 0.825 |
| RRIRNRPPRLPRPRPRPIDHPRP | -0.169 |
| RRIRTRPPRLPRPRPRPLLVPRP | -0.119 |
| RRIRDRPPRLPRPRPRPEWDPRP | 1.4 |

Please find the next sequence below.
Qu. Reported shrunken log2 fold change, sequence "RRIRWRPPRLPRPRPRPGPYPRP" : ____
Ans. -0.161

====

test system: Escherichia coli TOP10; assay: shrunken log2 fold change of peptide-encoding DNA abundance (4.5 h post-induction vs induction); higher = less antimicrobial activity (less host growth inhibition); settings: time post-induction: 4.5 h; library: site-saturation at positions 5, 18, 19, 20
quantity: shrunken log2 fold change
I'd appreciate a reply containing only the number, no unit.

| residue_string | measured_target | shrunken log2 fold change |
| --- | --- | --- |
| RRIRARPPRLPRPRPRPPPPPRP | Escherichia coli TOP10 | 1.46 |
| RRIRMRPPRLPRPRPRPKCEPRP | Escherichia coli TOP10 | 0.52 |

Qu. Reported shrunken log2 fold change, sequence "RRIRHRPPRLPRPRPRPTCEPRP" : ____
Ans. 0.012

Qu. Next: "RRIRPRPPRLPRPRPRPLSCPRP"
Ans. -0.0219

Qu. Next: "RRIRSRPPRLPRPRPRPIASPRP"
Ans. 0.0102

Qu. Next: "RRIRYRPPRLPRPRPRPYSIPRP"
Ans. -0.264

Qu. Next: "RRIRARPPRLPRPRPRPSFEPRP"
Ans. 0.327

Qu. Next: "RRIRKRPPRLPRPRPRPRKEPRP"
Ans. 0.015

Qu. Next: "RRIRIRPPRLPRPRPRPWYGPRP"
Ans. -1.24

Qu. Next: "RRIRNRPPRLPRPRPRPLVNPRP"
Ans. -0.289

Qu. Next: "RRIRMRPPRLPRPRPRPYFLPRP"
Ans. -0.542

====

tested on: Escherichia coli TOP10; assay: shrunken log2 fold change of peptide-encoding DNA abundance (4.5 h post-induction vs induction); higher = less antimicrobial activity (less host growth inhibition); conditions: time post-induction: 4.5 h; library: site-saturation at positions 5, 18, 19, 20
Tag: y if measured shrunken log2 fold change is not below 0.2, n if it is.

Examples from the recorded data:
| residue_string | class_assignment |
| --- | --- |
| RRIRVRPPRLPRPRPRPNCDPRP | n |
| RRIRWRPPRLPRPRPRPCMMPRP | n |
| RRIRIRPPRLPRPRPRPAKDPRP | n |
| RRIRYRPPRLPRPRPRPKYKPRP | n |
| RRIRLRPPRLPRPRPRPIMGPRP | n |
| RRIRERPPRLPRPRPRPEQFPRP | n |
| RRIRGRPPRLPRPRPRPACCPRP | y |
| RRIRWRPPRLPRPRPRPIVRPRP | y |
| RRIRKRPPRLPRPRPRPIDSPRP | y |
| RRIRFRPPRLPRPRPRPMDYPRP | n |

Qu. Given "RRIRERPPRLPRPRPRPTDMPRP" , state whether its shrunken log2 fold change is at least 0.2.
Ans. n

Qu. Next: "RRIRERPPRLPRPRPRPNFNPRP"
Ans. n

Qu. Next: "RRIRVRPPRLPRPRPRPPCEPRP"
Ans. y

Qu. Next: "RRIRKRPPRLPRPRPRPPRPPRP"
Ans. y

Qu. Next: "RRIRGRPPRLPRPRPRPRAYPRP"
Ans. y

Qu. Next: "RRIRGRPPRLPRPRPRPLQIPRP"
Ans. y

Qu. Next: "RRIRGRPPRLPRPRPRPWDQPRP"
Ans. y

Qu. Next: "RRIRLRPPRLPRPRPRPAPPPRP"
Ans. y

Qu. Next: "RRIRFRPPRLPRPRPRPCKVPRP"
Ans. n

Qu. Next: "RRIRERPPRLPRPRPRPCQNPRP"
Ans. n

Qu. Next: "RRIRHRPPRLPRPRPRPNCGPRP"
Ans. n

Qu. Next: "RRIRLRPPRLPRPRPRPYPKPRP"
Ans. n

Qu. Next: "RRIRIRPPRLPRPRPRPHDQPRP"
Ans. n

Qu. Next: "RRIRWRPPRLPRPRPRPGYLPRP"
Ans. n

Qu. Next: "RRIRIRPPRLPRPRPRPTGLPRP"
Ans. y

Qu. Next: "RRIRHRPPRLPRPRPRPCQLPRP"
Ans. n

Qu. Next: "RRIRMRPPRLPRPRPRPLIMPRP"
Ans. n

Qu. Next: "RRIRFRPPRLPRPRPRPLRHPRP"
Ans. y

Qu. Next: "RRIRPRPPRLPRPRPRPYQEPRP"
Ans. n

Qu. Next: "RRIRWRPPRLPRPRPRPIKDPRP"
Ans. y

Qu. Next: "RRIRERPPRLPRPRPRPAFDPRP"
Ans. n

Qu. Next: "RRIRARPPRLPRPRPRPGVTPRP"
Ans. y

====

Catalogue of sequences with associated shrunken log2 fold change
tested on: Escherichia coli TOP10; experiment: shrunken log2 fold change of peptide-encoding DNA abundance (4.5 h post-induction vs induction); higher = less antimicrobial activity (less host growth inhibition); details: time post-induction: 4.5 h; library: site-saturation at positions 5, 18, 19, 20
I'd appreciate a reply containing only the number, no unit.

Examples from the recorded data:
| residue_string | measured_target | shrunken log2 fold change |
| --- | --- | --- |
| RRIRWRPPRLPRPRPRPIKNPRP | Escherichia coli TOP10 | 0.136 |
| RRIRKRPPRLPRPRPRPWYQPRP | Escherichia coli TOP10 | 0.218 |
| RRIRPRPPRLPRPRPRPVVTPRP | Escherichia coli TOP10 | -0.207 |
| RRIRWRPPRLPRPRPRPTTCPRP | Escherichia coli TOP10 | -0.00726 |
| RRIRWRPPRLPRPRPRPCNEPRP | Escherichia coli TOP10 | -0.409 |
| RRIRDRPPRLPRPRPRPACCPRP | Escherichia coli TOP10 | 0.512 |

Qu. Reported shrunken log2 fold change, sequence "RRIRKRPPRLPRPRPRPGKYPRP" : ____
Ans. 0.0356

Qu. Next: "RRIRDRPPRLPRPRPRPFHIPRP"
Ans. -0.254

====

Catalogue of sequences with associated shrunken log2 fold change
tested on: Escherichia coli TOP10; assay: shrunken log2 fold change of peptide-encoding DNA abundance (4.5 h post-induction vs induction); higher = less antimicrobial activity (less host growth inhibition); settings: time post-induction: 4.5 h; library: site-saturation at positions 5, 18, 19, 20;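 also: peptides expressed intracellularly from a pBAD plasmid library in pooled LB shake-flask culture, induced with 0.3% L-arabinose, DNA abundance read by NGS, three biological replicates, DESeq2 with apeglm shrinkage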
I'd appreciate a reply containing only the number, no unit.

Examples from the recorded data:
| residue_string | shrunken log2 fold change |
| --- | --- |
| RRIRIRPPRLPRPRPRPFQRPRP | -0.0107 |
| RRIRARPPRLPRPRPRPKDHPRP | 0.175 |

Qu. Reported shrunken log2 fold change, sequence "RRIRWRPPRLPRPRPRPERPPRP" : ____
Ans. 0.292

Qu. Next: "RRIRFRPPRLPRPRPRPCQGPRP"
Ans. -0.198

Qu. Next: "RRIRWRPPRLPRPRPRPRNLPRP"
Ans. 0.0777

Qu. Next: "RRIRKRPPRLPRPRPRPQMPPRP"
Ans. 0.0482

Qu. Next: "RRIRPRPPRLPRPRPRPNFHPRP"
Ans. -0.169

Qu. Next: "RRIRQRPPRLPRPRPRPRYHPRP"
Ans. -0.784

Qu. Next: "RRIRSRPPRLPRPRPRPMGLPRP"
Ans. 0.101

Qu. Next: "RRIRPRPPRLPRPRPRPLHNPRP"
Ans. -0.201

Qu. Next: "RRIRLRPPRLPRPRPRPKVKPRP"
Ans. -0.0219
